Measured values drawn from patent US8420676B2 for this set.

- System: methicillin resistant Staphylococcus aureus (MRSA)
- experimental details: Assay for in vitro antibacterial activity, agar dilution (MRSA)
- measurement context: read-out: Minimum Inhibitory Concentration (MIC50) MRSA
endpoint name: MIC50 (µg/mL)
Supply the numeric figure in µg/mL, leaving out any unit text.

>>> meas_value("CC(=O)NC[C@H]1CN(c2ccc(-c3ccc(C4=NOC(COC(=O)CN)C4)nc3)c(F)c2)C(=O)O1 (stereo partly shown) [Compound 7, trifluoroacetic acid]")
0.5
>>> meas_value("Cn1nnc(-c2ccc(-c3ccc(N4C[C@H](Cn5nccn5)OC4=O)cc3F)cn2)n1 [Compound 8]")
16
>>> meas_value("O=C1O[C@@H](CO)CN1c1ccc(-c2ccc(-n3cncn3)nc2)c(F)c1 [Compound 17]")
1
>>> meas_value("Cn1nnc(-c2ccc(-c3ccc(N4C[C@H](COP(=O)(O)O)OC4=O)cc3F)cn2)n1 [Compound 72]")
32

Cn1nnc(-c2ccc(-c3ccc(N4C[C@H](CO)OC4=O)cc3F)cn2)n1 [Compound 10] yielded MIC50 of 0.5

Cn1nnnc1-c1ccc(-c2ccc(N3C[C@H](Cn4ccnn4)OC3=O)cc2F)cn1 [Compound 71] yielded MIC50 of 0.5

Cc1nnc(-c2ccc(-c3ccc(N4C[C@H](COC(=O)[C@@H](N)C(C)C)OC4=O)cc3F)cn2)o1.Cl [Compound 54] yielded MIC50 of 0.5

----------
Recorded measurements of MIC50, one per entry
- System: methicillin resistant Staphylococcus aureus (MRSA)
- experimental details: Assay for in vitro antibacterial activity, agar dilution (MRSA)
- measurement context: read-out: Minimum Inhibitory Concentration (MIC50) MRSA
Supply the numeric figure in µg/mL, leaving out any unit text.

Answered cases to consult:
>>> meas_value("Cc1nnc(-c2ccc(-c3ccc(N4C[C@H](COC(=O)CCN)OC4=O)cc3F)cn2)o1.Cl")
0.5
>>> meas_value("Cl.NC[C@H]1CN(c2ccc(-c3ccc(-n4ccnc4)nc3)c(F)c2)C(=O)O1")
32
>>> meas_value("Cc1nnc(-c2ccc(-c3c(F)cc(N4C[C@H](CO)OC4=O)cc3F)cn2)o1")
1

Cn1nnc(-c2ccc(-c3ccc(N4C[C@H](COC(=O)CCN)OC4=O)cc3F)cn2)n1 yielded MIC50 of 0.5

CC(=O)NC[C@H]1CN(c2ccc(-c3ccc(N4CCC(OC(=O)CN)C4=O)nc3)c(F)c2)C(=O)O1 (stereo partly shown) yielded MIC50 of 0.5

CC(=O)NC[C@H]1CN(c2ccc(-c3ccc(-n4nccn4)nc3)c(F)c2)C(=O)O1 yielded MIC50 of 0.25

Cc1nnc(-c2ccc(-c3ccc(N4C[C@H](COC(=O)CN)OC4=O)cc3F)cn2)o1.Cl yielded MIC50 of 0.5

----------
Recorded measurements of MIC50, one per entry
- Tested on: methicillin resistant Staphylococcus aureus (MRSA)
- experimental details: Assay for in vitro antibacterial activity, agar dilution (MRSA)
- measurement context: read-out: Minimum Inhibitory Concentration (MIC50) MRSA
Supply the numeric figure in µg/mL, leaving out any unit text.

Answered cases to consult:
>>> meas_value("CC(=O)NC[C@H]1CN(c2ccc(-c3ccc(-c4nc(C)c(C)o4)cc3)c(F)c2)C(=O)O1 [Compound 11]")
0.5
>>> meas_value("COC[C@H]1CN(c2ccc(-c3ccc(-c4nnn(C)n4)nc3)c(F)c2)C(=O)O1 [Compound 33]")
2
>>> meas_value("C[C@H](N)C(=O)OC[C@H]1CN(c2ccc(-c3ccc(-c4nnn(C)n4)nc3)c(F)c2)C(=O)O1.Cl [Compound 44]")
0.5
>>> meas_value("CNC[C@H]1CN(c2ccc(-c3ccc(-c4nnn(C)n4)nc3)c(F)c2)C(=O)O1 [Compound 41]")
4
>>> meas_value("CC(=O)NC[C@H]1CN(c2ccc(N3CCOCC3)c(F)c2)C(=O)O1 [Zyvox, reference compound]")
2

Cn1nnc(-c2ccc(-c3c(F)cc(N4C[C@H](CO)OC4=O)cc3F)cn2)n1 [Compound 38] yielded MIC50 of 0.5
